Cited source for all entries: patent US20260048158A1

Biological target: T1, B7-H3 expressed on the surface of cells (MCF7 cells; B7-H3-expressing cancer cells) (Homo sapiens (Human), UniProt Q5ZPR3 29-534)
T1 construct: Endogenous B7-H3 on MCF7 cells (DELFIA) and on an unnamed cancer cell line (flow cytometry); also called CD276
T1 sequence: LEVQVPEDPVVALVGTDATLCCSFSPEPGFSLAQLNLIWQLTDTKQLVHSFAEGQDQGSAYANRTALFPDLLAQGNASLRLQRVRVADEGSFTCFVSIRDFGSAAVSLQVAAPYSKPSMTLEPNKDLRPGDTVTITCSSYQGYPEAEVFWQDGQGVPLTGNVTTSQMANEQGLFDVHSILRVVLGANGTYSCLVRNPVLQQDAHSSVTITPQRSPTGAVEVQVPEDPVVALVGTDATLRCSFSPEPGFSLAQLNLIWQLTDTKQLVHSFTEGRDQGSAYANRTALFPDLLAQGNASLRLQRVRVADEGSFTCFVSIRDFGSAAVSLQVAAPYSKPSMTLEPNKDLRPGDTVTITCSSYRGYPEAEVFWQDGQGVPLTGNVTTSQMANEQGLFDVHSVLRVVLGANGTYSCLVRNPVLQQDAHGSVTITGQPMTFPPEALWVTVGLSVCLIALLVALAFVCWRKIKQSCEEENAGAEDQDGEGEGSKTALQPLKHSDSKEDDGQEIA
Test: DELFIA competition on cells expressing B7-H3 (as in Example 14); competitor: europium-chelate miniprotein tracer
pKi: −log10 of the molar value. Primed or numbered codes have the meaning given here. The star is where a group is joined. Biotin = O=C1N[C@H]2[C@H](CS[C@H]2CCCCC(=O)*)N1; PEG4′ = not defined here
Outcome label depends on pKi relative to 8: at/above gives TRUE, below gives FALSE.

[[record]]
binder = "{Biotin-PEG4′}-CAREKIAALSEIIWLPCLTYAQILAFIAALNDDPCQSSEILSEAKELCS-NH2 (designed binder, disulfide (positions not given here)) [Compound C286]"
discrete_label = "FALSE"


Now look at this entry.
Reported pKi reaches at least 8 for {Biotin-PEG4′}-CAREKIAALSEIIWLPCLTYAQIKAFIAALNDDPCQSSEILSEAKELCS-NH2 (designed binder, disulfide (positions not given here)) [Compound C284] ?
TRUE
